- assay: M. tuberculosis growth inhibition, HTS (AID 449762);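 further: bacterial growth assessed after seven days of incubation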
- studyConditions: M. tuberculosis H37Rv growth inhibition, 7H9 media; at 25 µM; stronger effect = higher value
Hit rate of the full screen: of about 330,000 compounds, about 1,900 (0.58%) were called active. Not shown: some 4% with an inconclusive outcome. Only a sample is shown. Potency and affinity values are given separately.
assayEndpoint: inhibition (%)
# unit: % | format: bare number

molecule	unitInfo	readoutNumber
Cc1cc(NS(=O)(=O)c2ccc(NC(=O)/C=C/c3ccccc3Cl)cc2)no1	%	40.1
CCCCN(C(=O)c1c(C)noc1C)c1c(N)n(CCC)c(=O)[nH]c1=O	%	-2.29
CSc1ccc(CNC(=O)C2Cc3cc(S(=O)(=O)N4CCCC4)ccc3N2C(C)=O)cc1 (stereo not given)	%	2.84

Incoming: For the molecule shown here, `O=C(Nc1ccc(C(=O)N2CCCC2)cc1)Nc1ccc(Cl)cc1Cl` , give the reported inhibition.
Outgoing: -2.35

Incoming: Dear colleague, I am looking for the recorded inhibition of the following molecule: `Cn1c(=O)c2c(ncn2CC(=O)Nc2ccc(N3CCOCC3)cc2)n(C)c1=O`
Outgoing: -5.62

----------
- assay: M. tuberculosis growth inhibition, HTS (AID 449762);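 further: bacterial growth assessed after seven days of incubation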
- studyConditions: M. tuberculosis H37Rv growth inhibition, 7H9 media; at 25 µM; stronger effect = higher value
In all, about 330,000 compounds went through this assay and about 1,900 (0.58%) were called active. Another 4% or so got no clear call; they are omitted. These entries were drawn from the full list. Potency and affinity values are given separately.
Reported inhibition by item:
Expressed in %, but write only the number.

compound	inhibition [%]
COc1cccc(NC(=S)N(CCCN2CCCC2)Cc2cccn2Cc2ccc(Cl)cc2)c1	6.09
Cc1c(Cl)cccc1NC(=O)NCc1ccccn1	-11.4
Cc1cccc(NC(=S)N(CCCN2CCCC2)Cc2cccn2Cc2ccc(Cl)cc2)c1	42.3
CC1=CC(=O)C(C(C)C)=CC1=NC(=O)c1ccc(C)cc1	3.21
COC(=O)c1[nH]c2ccccc2c1NC(=O)C(C)N1CCN(C(=O)c2ccco2)CC1 (stereo unspecified)	-9.02

Incoming: Sample Cc1cc(NC(=O)CCC(=O)N(c2ccccc2)C(C(=O)NC2CCCC2)c2ccccc2C)no1 (stereo unspecified) — what was its inhibition?
Outgoing: 0.1

Incoming: State the recorded inhibition for this entry: `CC(=O)N1CCN(c2ccc(NC(=S)NC(=O)/C=C/c3ccccc3)cc2)CC1`
Outgoing: 1.44

Incoming: Entry under review: CC1CC(C)CN(C(=O)Cn2nnc(-c3ccc(Br)cc3)n2)C1 (stereo unspecified) . Reported inhibition?
Outgoing: 2.83

Incoming: Fill blank: measured inhibition of the compound `Cc1cc(C)c(S(=O)(=O)Nc2ccc(Cl)cn2)c(C)c1` is ____.
Outgoing: 2.9

Incoming: Could you share which inhibition value was measured for `CCOC(=O)Cc1csc(NC(=O)COc2ccccc2OCC)n1` ?
Outgoing: -11.5

Incoming: Could you tell me which inhibition is on file for `Cc1c(C(=O)NCc2ccccn2)oc2c(Cl)cccc12` ?
Outgoing: -3.71

----------
- assay: M. tuberculosis growth inhibition, HTS (AID 449762);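 further: bacterial growth assessed after seven days of incubation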
- studyConditions: M. tuberculosis H37Rv growth inhibition, 7H9 media; at 25 µM; stronger effect = higher value
In all, about 330,000 compounds went through this assay and about 1,900 (0.58%) were called active. Another 4% or so got no clear call; they are omitted. The list is a sample of the results. Potency and affinity values are given separately.
assayEndpoint: inhibition (%)
// units = %; emit number, no label

Incoming: Item `CN(C)S(=O)(=O)c1ccc(Nc2ccc(-c3ccc4c(c3)OCCO4)nn2)cc1` has what recorded inhibition?
Outgoing: 2.53

----------
Entries annotated with measured inhibition
- assay: M. tuberculosis growth inhibition, HTS (AID 449762);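 further: bacterial growth assessed after seven days of incubation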
- studyConditions: M. tuberculosis H37Rv growth inhibition, 7H9 media; at 25 µM; stronger effect = higher value
About 1,900 (0.58%) of roughly 330,000 compounds were called active. Inconclusive results (about 4%) are left out. The list is a sample of the results. Measured potencies and affinities stand elsewhere.
The reply should be a number in %, with the unit left off.

Some solved cases for reference:
molecule	unitInfo	inhibition
Clc1ccccc1-c1nnc2n1CCCCC2	%	-3.29
CCC(=O)c1c[nH]c(C(=O)NCc2cccc(C(F)(F)F)c2)c1	%	3.92

Incoming: Quick one: inhibition of `O=C(NN1C(=O)NC2(CCCCC2)C1=O)c1ccc(-c2ccc([N+](=O)[O-])cc2)o1` ?
Outgoing: 4.8

Incoming: Would you kindly share the measured inhibition for `COc1ccc(/C=C/C(=O)NCCOc2ccc(C)cc2)cc1` ?
Outgoing: -2.38

Incoming: Quick one: inhibition of `Cc1cccc(N=C2C(=O)Nc3c(Cl)cccc32)c1` ?
Outgoing: 6.57

Incoming: Entry `O=C(O)c1cccnc1SCC(=O)N1CCCc2ccccc21` : reported inhibition = ?
Outgoing: -17

Incoming: What measured inhibition goes with `Nc1c2c(nc3ccn(-c4ccccc4)c(=O)c13)CCCCC2` ?
Outgoing: 3.82

Incoming: Value lookup for inhibition; key = `O=c1cc(-c2ccccc2)nc(Cc2c(Cl)cccc2Cl)[nH]1`
Outgoing: 8.31

Incoming: For `Cc1ncsc1CCOC(=O)c1ccccc1` , what is its reported inhibition?
Outgoing: 4.41

Incoming: Given the entry `O=C1CC(/C=C/c2ccccc2)=Nc2ccccc2N1` , report its measured inhibition.
Outgoing: -1.18

Incoming: Can you share its inhibition? I mean this molecule: `Cc1ccc(C(=O)N/C(=C\c2cccs2)C(=O)N2CCN(C)CC2)cc1C`
Outgoing: 0.74

Incoming: Can you share its inhibition? I mean this molecule: CC1C(C#N)=C(SCC(N)=O)NC2=C1C(=O)CC(C)(C)C2 (centres undefined)
Outgoing: 0.02

Incoming: Requested read-out: inhibition. Entry: `Oc1ccccc1-c1nnc2n1CCCCC2`
Outgoing: -9.99

Incoming: // lookup inhibition for CCNC(=O)CC1C(=O)N(c2ccc(C)cc2)C(=O)N1CCc1sccc1C (centres undefined)
Outgoing: -0.52

Incoming: Item under review: `COCc1cc(=O)[nH]c(Cc2c(Cl)cccc2Cl)n1` . Reported inhibition?
Outgoing: 3.62

Incoming: Reported inhibition, molecule CC(=O)OC(c1nc2ccccc2c(=O)n1C1CC2(OC1=O)c1ccccc1N1C(=O)C(C)(C)N(O)C12)C(C)C (centres undefined) : ____
Outgoing: -6.29

Incoming: For `O=C1CN=CN=CN1c1ccc(Cl)cc1Cl` , what is its reported inhibition?
Outgoing: 10.8

Incoming: Could you tell me which inhibition is on file for CCOc1ccc(C2CC(c3ccc(CC)cc3)Nc3nc(N)nn32)cc1 (centres undefined) ?
Outgoing: 53.9

Incoming: GET /values?readout=inhibition&item= `Nc1c2c(nc3ccccc13)CCC2`
Outgoing: -1.89

Incoming: Query: inhibition; subject: `COC(=O)c1ccc(NC(=O)COc2ccc([N+](=O)[O-])cc2)cc1`
Outgoing: -9.31

Incoming: Param item = `CC(=Nc1cccc(O)c1)c1sc2ccccc2c1O` ; retrieve measured inhibition.
Outgoing: 11.9

Incoming: // returns reported inhibition for input `COc1cc(NS(=O)(=O)c2cc3c(cc2C)NC(=O)CO3)cc(OC)c1`
Outgoing: -11.6

Incoming: What value of inhibition has been reported for the following molecule? `CCSc1nc2ccccc2n1Cc1cccc([N+](=O)[O-])c1`
Outgoing: -1.33

Incoming: Reported inhibition, molecule `CC(=O)Nc1ccc(NC(=O)COc2ccc([N+](=O)[O-])cc2)cc1` : ____
Outgoing: -3.36

----------
- assay: M. tuberculosis growth inhibition, HTS (AID 449762);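 further: bacterial growth assessed after seven days of incubation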
- studyConditions: M. tuberculosis H37Rv growth inhibition, 7H9 media; at 25 µM; stronger effect = higher value
About 1,900 (0.58%) of roughly 330,000 compounds were called active. About 4% were inconclusive and are not listed. Not all results are given here. Results with a measured potency or affinity are listed apart.
Parameter: inhibition. Scope: all listed entries.
Give a bare numeral; the unit % is implied.

// solved cases for inhibition follow
compound	inhibition, %
Cc1cc(C(=O)CSc2nnc(N)s2)c(C)n1CCc1ccc(Cl)cc1	9.47
CC(=O)c1c(C)[nH]c(C(=O)CSc2nc3ccccc3c(=O)n2CCCO)c1C	10.8
CCN(CC)C(=O)Oc1ccc2c(=O)c(-c3ccccc3)coc2c1	64.8
CN(c1ccccc1)S(=O)(=O)c1cccc(NC(=O)CSc2nnc(N)s2)c1	3.34
COc1ccc(CCN(C)C(=O)C2CC(=O)N(Cc3ccc(C)cc3)C2)cc1OC (stereo not given)	-4.64

Incoming: Field request: inhibition | item: O=C(NCc1ccc(Cl)cc1)C1CCCN(c2cnccn2)C1 (stereo not given)
Outgoing: 3.46

Incoming: Requested read-out: inhibition. Entry: CCCCCCC1CC(CC(=O)Nc2ccc([N+](=O)[O-])cc2)C(=O)O1 (stereo not given)
Outgoing: 5.26

Incoming: For CCCCCC1CC(CC(=O)Nc2ccc([N+](=O)[O-])cc2)C(=O)O1 (stereo not given) , what is its reported inhibition?
Outgoing: 68.8

Incoming: Report inhibition for `CCN(CC)C(=O)c1ccc(C(=O)c2c(C)cc(C)cc2C)cc1` please.
Outgoing: -0.54

Incoming: Bench note: what inhibition did `COc1ccc(-c2coc3cc(OC(=O)N4CCOCC4)ccc3c2=O)cc1` show?
Outgoing: 10.6
